The origin of these recorded values is PubChem BioAssay (NCI).

# Test system: SR leukemia
# protocol: NCI-60 one-dose screen, 48 h (100 = growth as untreated, 0 = no growth, -100 = all killed)
# conditions: 10 µM unless noted
# Protocol: Growth inhibition of the SR human tumor cell line is measured as a screen for anti-cancer activity. Cells are grown in 96 well plates and exposed to the test compound for 48 hours. Compounds are tested at a single concentration, which is 10^-5 M for most compounds. The reported endpoint is percent growth (GI% or GIPRCNT), where numbers from 0 - 100% represent growth inhibition, and numbers from -100% - 0 represent cell death. For example, a value of 40 represents 60% growth inhibition. […]
About 83,000 compounds went through this panel and 20% of them were active in at least one assay; those are over-represented in the sample as a whole.
Label 0 (no) if growth falls below 70%; label 1 (yes) in every other case.

Previously resolved entries follow.
COc1ccc(/C(Cl)=N/N=C(\Cl)c2cc(OC)c(OC)c(OC)c2)cc1OC(C)=O | 1 (yes)
O=C(CSc1nnc(-c2ccccc2)o1)Nc1ccc(C(=O)/C=C/c2ccccc2)cc1 | 0 (no)
COc1ccccc1S(=O)(=O)Nc1ccc2c3c(cc(-c4ccoc4)nc13)C(=O)N2C | 0 (no)
CC(C)CCC[C@@H](C)[C@H]1CC[C@H]2[C@@H]3CC=C4N(c5ccccc5)C(=O)CC[C@]4(C)[C@H]3CC[C@]12C | 1 (yes)
Cc1cn([C@]2(CF)O[C@H](CO)C2C)c(=O)[nH]c1=O (stereo partly drawn) | 1 (yes)

Asked: Kindly determine if growth recorded for `O=c1cc(Cl)[nH]c(=O)[nH]1` is above or exactly 70%.
Given back: 1 (yes)

Asked: Repeat for the following molecule: `O=C1C(Cl)=C(Nc2ccccc2)C(=O)C(Cl)=C1Nc1ccccc1`
Given back: 1 (yes)

Asked: Param item: O=C(NOC1OC(CO)C(O)C(O)C1O)Nc1ccccc1 (stereo not drawn)
Given back: 1 (yes)
